Molecular target: recombinant SphK1 (Homo sapiens (Human))
Assay: SphK1 scintillation proximity kinase assay
MEASUREMENT NAME: Ki

> print(dat)
                                   compound  assay.value
1  CCCCCCCCCCCCCCCCC(=N)N [Compound 3, heptadecanimidamide]   1 to 10 µM
2  CCCCCCCCc1ccc([C@H]2CC[C@H](NC(=N)N)CC2)cc1   1 to 10 µM
3  CCCCCCCCCCc1ccc(-c2noc([C@@H]3CCN3C(=N)N)n2)cc1   1 to 10 µM
4      CCCCCCCCc1ccc(-c2noc(CNC(=N)N)n2)cc1   1 to 10 µM
5  CCCCCCCCCCCc1cc(-c2noc(C3(C(=N)N)CC3)n2)ccc1OC       < 1 µM
6  CCCCCCCCc1ccc(-c2noc(C3CN(C(=N)N)C3)n2)cc1   1 to 10 µM

Endpoint output: Ki of N=C(N)N1CC[C@H]1c1nc(-c2ccc(-c3ccccc3)cc2)no1 . Value?
> 10 µM

And the next one, CCCCCCCCCCCCc1ccc(-c2noc(C3(C(=N)N)CC3)n2)cc1 ?
1 to 10 µM

// repeat for CCCCCCCCc1ccc(-c2noc([C@@H](NC(=N)N)C(C)C)n2)cc1 and report
1 to 10 µM

* * *

Target: recombinant SphK1 (Homo sapiens (Human), UniProt Q9NYA1)
Sequence (Q9NYA1 whole entry): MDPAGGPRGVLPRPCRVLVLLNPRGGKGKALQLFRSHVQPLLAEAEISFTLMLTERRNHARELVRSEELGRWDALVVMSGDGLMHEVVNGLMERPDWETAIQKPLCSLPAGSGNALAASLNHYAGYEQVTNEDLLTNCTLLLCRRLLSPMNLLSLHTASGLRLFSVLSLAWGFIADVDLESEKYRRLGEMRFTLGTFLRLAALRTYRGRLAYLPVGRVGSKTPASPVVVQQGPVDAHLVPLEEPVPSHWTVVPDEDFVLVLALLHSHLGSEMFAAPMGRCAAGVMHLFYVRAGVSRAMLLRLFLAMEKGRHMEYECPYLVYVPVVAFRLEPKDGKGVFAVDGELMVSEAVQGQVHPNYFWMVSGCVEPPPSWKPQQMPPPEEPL
Test: SphK1 scintillation proximity kinase assay
Below, each entry is listed alongside its reported Ki.

Known Ki results, listed for orientation:
> print(dat)
                         compound.structure                              study.system  measurement.name  assay.value
1  CCCCCCc1ccc(-c2noc([C@@H]3CCCN3C(=N)N)n2)cc1  recombinant SphK1 (Homo sapiens (Human), UniProt Q9NYA1)                Ki      > 10 µM
2  CCCCCCCCc1ccc(-c2noc([C@H](C)NC(=N)N)n2)cc1  recombinant SphK1 (Homo sapiens (Human), UniProt Q9NYA1)                Ki   1 to 10 µM
3  CCCCCCCCCCCCc1ccc(-c2noc([C@@H]3CCCN3C(=N)N)n2)cc1  recombinant SphK1 (Homo sapiens (Human), UniProt Q9NYA1)                Ki      > 10 µM

// next item, Ki requested
// returns reported Ki for input CCCCCCCCCCc1ccc(-c2noc([C@@H]3CCCN3C(=N)N)n2)cc1
1 to 10 µM

src = patent US9688668B2
